- Experiment summary: chemical genetic growth profiling, strain panel (AID 1159580);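 further: tested at 20 µM; growth read once vehicle control cultures reached saturation at 30 °C; 1 = growth at the plate median or of vehicle wells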
- Particulars: S. cerevisiae deletion strains, growth OD, locus YDL101C, strain DUN1
The campaign covered roughly 5,500 compounds. About 2,000 (36%) were called active. Roughly 18% stayed inconclusive and do not appear here. No stated cut-off is given here; in the data, active means normalized growth mostly below about 0.91 (no sharp cut-off); inconclusive means no clear call, values can overlap the other calls; inactive means mostly above about 0.92. Some of the results follow.
Assign a class; possible classes are yes (active), no (inactive)

Hello, I am checking results. What call was entered for NC(=O)c1cc[n+](CC2=C(C(=O)O)N3C(=O)C(NC(=O)C(c4ccccc4)S(=O)(=O)[O-])C3SC2)cc1 (stereo unspecified) ?
no

Hello, I am checking results. What call was entered for O=C(O)P(=O)(O)O ?
no

Hello, I am checking results. What call was entered for COc1ccc(OC)c(S(=O)(=O)NCc2c(F)cccc2Cl)c1 ?
no

Hello, I am checking results. What call was entered for COc1ccccc1-c1cc(=O)c2c(OC)cccc2o1 ?
no

Hello, I am checking results. What call was entered for CCCCC(CC)CN=C(N)NC(N)=NCCCCCCN=C(N)NC(N)=NCC(CC)CCCC (stereo unspecified) ?
yes

Hello, I am checking results. What call was entered for O=S(=O)(c1cc(Br)c(Br)s1)N1CCCCC1 ?
no

Hello, I am checking results. What call was entered for O=C(O)CNCP(=O)(O)O ?
no

Hello, I am checking results. What call was entered for COc1ccccc1-c1cc(=O)c2cccc(OC)c2o1 ?
no

Hello, I am checking results. What call was entered for c1cc2c(cc1[C@H]1OC[C@H]3[C@@H]1CO[C@H]3c1ccc3c(c1)OCO3)OCO2 ?
no

Hello, I am checking results. What call was entered for COc1cc(Cl)c(NS(=O)(=O)c2cc(Br)c(Br)s2)c(OC)c1 ?
no

Hello, I am checking results. What call was entered for CCOC(=O)C1=C[C@]2(CC)CCCN3CCc4c(n1c1ccccc41)[C@@H]32 ?
no

---

- Experiment summary: chemical genetic growth profiling, strain panel (AID 1159580)
- Particulars: S. cerevisiae deletion strains, growth OD, locus YER016W, strain bim1, hits give low values
About 2,000 (36%) of roughly 5,500 compounds were called active. Roughly 18% stayed inconclusive and do not appear here. Some of the results follow.
Please go through the items and note down their normalized growth.
Enter the number alone.

normalized growth recorded for this molecule, CO[C@@H]1[C@@H](O[C@@H]2O[C@H](C)[C@@H](O[C@H]3C[C@@](C)(O)[C@H](O)[C@H](C)O3)[C@H](N(C)C)[C@H]2O)[C@@H](CC=O)C[C@@H](C)[C@@H](O[C@H]2CC[C@H](N(C)C)[C@@H](C)O2)/C=C/C=C/C[C@H](C)OC(=O)C[C@H]1O , is 1.01

normalized growth recorded for this molecule, C[C@](N)(Cc1ccc(O)c(O)c1)C(=O)O , is 0.987

normalized growth recorded for this molecule, C[C@](N)(Cc1ccc(O)cc1)C(=O)O , is 0.993

normalized growth recorded for this molecule, CC(Cc1ccc(O)c(O)c1)(NN)C(=O)O (stereo not given) , is 1.01

normalized growth recorded for this molecule, CCOC(=O)C(C)(N)Cc1ccc(O)c(O)c1 (stereo not given) , is 0.992

---

- Experiment summary: chemical genetic growth profiling, strain panel (AID 1159580)
- Particulars: S. cerevisiae deletion strains, growth OD, locus YNL071W, strain lat1, hits give low values
Out of some 5,500 compounds screened, about 2,000 (36%) were called active. Inconclusive results (about 18%) are left out. The list shows a part of the results.
Assay endpoint: normalized growth
Enter the number alone.

normalized growth recorded for this molecule, CC(=O)O[C@H]1CC[C@@]2(C)C(=CCC3C2CC[C@@]2(C)C3CC[C@@H]2C(C)CCCC(C)C)C1 (stereo not given in full) , is 0.999

normalized growth recorded for this molecule, COc1cc(/C=C/C(=O)O)ccc1O , is 1

normalized growth recorded for this molecule, c1ccc2[nH]c(-c3cscn3)nc2c1 , is 0.954

normalized growth recorded for this molecule, CC(=O)O[C@H]1CC[C@@]2(C)C(=CCC3C2CC[C@]2(C)C(=O)CCC32)C1 (stereo not given in full) , is 0.758

normalized growth recorded for this molecule, COc1cc(/C=C/C(=O)O)cc(OC)c1OC , is 0.991

normalized growth recorded for this molecule, CC12CCC3C(CC=C4CC(O)CCC43C)C1CCC2=O (stereo not given) , is 0.513

normalized growth recorded for this molecule, CN(C)CCCO[C@H]1[C@@H](C(O)CO)OC2OC(C)(C)O[C@@H]21 (stereo not given in full) , is 1.06

normalized growth recorded for this molecule, CC12CCC(CC1)C(C)(C)O2 , is 0.984

normalized growth recorded for this molecule, COc1ccc(/C=C/C(=O)O)cc1OC , is 0.998

normalized growth recorded for this molecule, COc1ccc(/C=C/C(=O)c2ccc(O)cc2O)cc1 , is 0.0785

---

- Experiment summary: chemical genetic growth profiling, strain panel (AID 1159580);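 further: tested at 20 µM; growth read once vehicle control cultures reached saturation at 30 °C; 1 = growth at the plate median or of vehicle wells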
- Particulars: S. cerevisiae deletion strains, growth OD, locus YHR030C, strain SLT2, hits give low values
Out of some 5,500 compounds screened, about 2,000 (36%) were called active. Inconclusive results (about 18%) are left out. The list shows a part of the results.
normalized growth strictly less than 0.6 = 1 (yes). Otherwise 0 (no).

Confirm or reject: normalized growth of O=C1OC(CN2CCOCC2)CN1/N=C\c1ccc([N+](=O)[O-])o1 (stereo not given) lies strictly below 0.6
0 (no)

Confirm or reject: normalized growth of O=C(O)c1cc(C(F)(F)F)ccc1F lies strictly below 0.6
0 (no)

Confirm or reject: normalized growth of COc1ccccc1C(C[N+](=O)[O-])c1c(N)n(C)c(=O)n(C)c1=O (stereo not given) lies strictly below 0.6
1 (yes)

Confirm or reject: normalized growth of CC(=O)C(Sc1nc2ccccc2s1)C(C)=O lies strictly below 0.6
0 (no)

Confirm or reject: normalized growth of S=c1[nH]c2ccccc2[nH]1 lies strictly below 0.6
0 (no)

---

Please go through the items and note down their normalized growth.
- Experiment summary: chemical genetic growth profiling, strain panel (AID 1159580);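 further: tested at 20 µM; growth read once vehicle control cultures reached saturation at 30 °C; 1 = growth at the plate median or of vehicle wells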
- Particulars: S. cerevisiae deletion strains, growth OD, locus YNL209W, strain ssb2, hits give low values
The whole screen tested about 5,500 compounds, of which about 2,000 (36%) were called active. Inconclusive results (about 18%) are left out. The list shows a part of the results.
Enter the number alone.

normalized growth recorded for this compound, O=C(NC(=O)c1c(F)cccc1F)Nc1cc(Cl)c(OC(F)(F)C(F)C(F)(F)F)cc1Cl (stereo unspecified) , is 0.978

normalized growth recorded for this compound, CCCc1cc(OC)c2c(c1)OCO2 , is 0.967

normalized growth recorded for this compound, CCOC(=O)C(C)(N)Cc1ccc(O)c(O)c1 (stereo unspecified) , is 0.961

normalized growth recorded for this compound, C=CCN1CC[C@]23c4c5ccc(O)c4OC2C(=O)CC[C@@]3(O)[C@H]1C5 (stereo partly specified) , is 0.945

normalized growth recorded for this compound, COS(C)(=O)=O , is 1.01

normalized growth recorded for this compound, C[C@](N)(Cc1ccc(O)cc1)C(=O)O , is 1.01

---

Please go through the items and note down their normalized growth.
- Experiment summary: chemical genetic growth profiling, strain panel (AID 1159580);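 further: tested at 20 µM; growth read once vehicle control cultures reached saturation at 30 °C; 1 = growth at the plate median or of vehicle wells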
- Particulars: S. cerevisiae deletion strains, growth OD, locus YER167W, strain BCK2, hits give low values
Among all 5,500 compounds or so, about 2,000 (36%) were called active. Not shown: some 18% with an inconclusive outcome. The list shows a part of the results.
Enter the number alone.

normalized growth recorded for this compound, C#C[C@]1(O)CCC2C3CCc4cc(O)ccc4C3CC[C@@]21C (some centres not stated) , is 1

normalized growth recorded for this compound, OCC(S)CS (configuration not stated) , is 1.02

normalized growth recorded for this compound, O=C(O)c1cc(O)c(O)c(O)c1 , is 1.03

normalized growth recorded for this compound, CC(=O)C1=C(O)C2C3c4c[nH]c5cccc(c45)CC3C(C)(C)N2C1=O (configuration not stated) , is 1.01

normalized growth recorded for this compound, NCc1ccc(S(N)(=O)=O)cc1 , is 1.02

normalized growth recorded for this compound, CCCCC(CC)CN=C(N)NC(N)=NCCCCCCN=C(N)NC(N)=NCC(CC)CCCC (configuration not stated) , is 0.0573

normalized growth recorded for this compound, O=C(O)c1cc(=O)c(O)c2c(O)c(O)ccc2c1 , is 1.03

normalized growth recorded for this compound, COc1cc(C(=O)O)cc(OC)c1O , is 1

normalized growth recorded for this compound, COP(=S)(OC)Oc1ccc(SC)c(C)c1 , is 1

normalized growth recorded for this compound, CC1(C)C2CC(=O)O[C@@]3(C)C4=CC(=O)O[C@@H](c5ccoc5)[C@]4(C)CCC3[C@@]2(C)C=C[C@H]1O (some centres not stated) , is 1.02

normalized growth recorded for this compound, CCCNC(C)C(=O)Nc1ccccc1C (configuration not stated) , is 1

normalized growth recorded for this compound, O=C1O[C@@H](CO)[C@H](O)[C@@H](O)[C@@H]1O , is 1.01
